measurement-target: CYP17A1 (Homo sapiens, UniProt P05093)
Sequence (P05093 whole entry): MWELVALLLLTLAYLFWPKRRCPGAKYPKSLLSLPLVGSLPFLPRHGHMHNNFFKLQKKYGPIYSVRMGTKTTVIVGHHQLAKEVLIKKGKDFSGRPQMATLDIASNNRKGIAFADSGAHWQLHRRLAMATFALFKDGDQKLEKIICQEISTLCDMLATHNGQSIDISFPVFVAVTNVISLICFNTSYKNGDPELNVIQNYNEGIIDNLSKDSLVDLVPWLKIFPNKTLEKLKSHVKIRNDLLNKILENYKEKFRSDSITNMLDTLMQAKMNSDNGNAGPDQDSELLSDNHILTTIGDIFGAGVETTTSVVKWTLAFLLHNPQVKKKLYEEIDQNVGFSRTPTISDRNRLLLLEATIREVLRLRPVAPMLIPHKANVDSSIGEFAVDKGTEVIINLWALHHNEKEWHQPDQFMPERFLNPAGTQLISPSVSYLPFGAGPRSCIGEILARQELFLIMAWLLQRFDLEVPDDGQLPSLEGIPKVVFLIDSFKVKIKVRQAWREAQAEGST

# compound-string, measurement-target, unit-descriptor, Kd
rows = [
    ("C[C@]12CC[C@H](O)CC1=CC[C@@H]1[C@@H]2CC[C@]2(C)C(c3cccnc3)=CC[C@@H]12", "CYP17A1 (Homo sapiens, UniProt P05093)", "nM", 0.044),
]

The origin of these recorded values is paper PMC10475101.
